# Target Of Assay: Group 10 secretory phospholipase A2 (Homo sapiens, UniProt O15496)
# Sequence (O15496 whole entry): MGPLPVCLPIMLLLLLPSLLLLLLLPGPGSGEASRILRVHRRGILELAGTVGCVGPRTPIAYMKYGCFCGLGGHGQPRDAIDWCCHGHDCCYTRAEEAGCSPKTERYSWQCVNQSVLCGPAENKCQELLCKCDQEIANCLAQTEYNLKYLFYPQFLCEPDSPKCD
# Test Name: Inhibition of human cloned sPLA2-10 expressed in HEK293 cells
# Format: cell-based
Below, each of the molecules is paired with its reported IC50 value.

- O=c1cc(-c2ccccc2)oc2ccc(-c3ccc4oc(-c5ccccc5)cc(=O)c4c3)cc12: > 100 µM
- O=c1cc(-c2ccc(O)c(-c3c(O)cc(O)c4c(=O)cc(-c5ccc(O)cc5)oc34)c2)oc2cc(O)cc(O)c12: > 100 µM
- O=c1cc(-c2ccc(-c3c(-c4ccccc4)oc4ccccc4c3=O)cc2)oc2ccccc12: > 100 µM

Query molecule follows.
Lookup: Any idea what its IC50 is? The molecule is O=c1cc(-c2cccc(-c3ccc4oc(-c5ccccc5)cc(=O)c4c3)c2)oc2ccccc12
Found: 27.6 µM

---

# Target Of Assay: Group 10 secretory phospholipase A2 (Homo sapiens)
# Test Name: Inhibition of human cloned sPLA2-10 expressed in HEK293 cells
Quantity Measured: IC50

- O=c1cc(-c2ccc(-c3ccc(-c4cc(=O)c5ccccc5o4)cc3)cc2)oc2ccccc12: > 100 µM
- O=c1cc(-c2ccc(Oc3cc(-c4cc(=O)c5c(O)cc(O)cc5o4)ccc3O)cc2)oc2cc(O)cc(O)c12 [OCHNAFLAVONE]: > 100 µM
- O=c1cc(-c2ccc(-c3ccc4oc(-c5ccccc5)cc(=O)c4c3)cc2)oc2ccccc12: > 100 µM

Lookup: Form field: IC50 recorded for O=c1cc(-c2ccc(-c3cccc(-c4cc(=O)c5ccccc5o4)c3)cc2)oc2ccccc12 with Group 10 secretory phospholipase A2 (Homo sapiens) (enter value)
Found: > 100 µM

---

# Target Of Assay: Cytosolic phospholipase A2 (Homo sapiens, UniProt P47712)
# Sequence (P47712 whole entry): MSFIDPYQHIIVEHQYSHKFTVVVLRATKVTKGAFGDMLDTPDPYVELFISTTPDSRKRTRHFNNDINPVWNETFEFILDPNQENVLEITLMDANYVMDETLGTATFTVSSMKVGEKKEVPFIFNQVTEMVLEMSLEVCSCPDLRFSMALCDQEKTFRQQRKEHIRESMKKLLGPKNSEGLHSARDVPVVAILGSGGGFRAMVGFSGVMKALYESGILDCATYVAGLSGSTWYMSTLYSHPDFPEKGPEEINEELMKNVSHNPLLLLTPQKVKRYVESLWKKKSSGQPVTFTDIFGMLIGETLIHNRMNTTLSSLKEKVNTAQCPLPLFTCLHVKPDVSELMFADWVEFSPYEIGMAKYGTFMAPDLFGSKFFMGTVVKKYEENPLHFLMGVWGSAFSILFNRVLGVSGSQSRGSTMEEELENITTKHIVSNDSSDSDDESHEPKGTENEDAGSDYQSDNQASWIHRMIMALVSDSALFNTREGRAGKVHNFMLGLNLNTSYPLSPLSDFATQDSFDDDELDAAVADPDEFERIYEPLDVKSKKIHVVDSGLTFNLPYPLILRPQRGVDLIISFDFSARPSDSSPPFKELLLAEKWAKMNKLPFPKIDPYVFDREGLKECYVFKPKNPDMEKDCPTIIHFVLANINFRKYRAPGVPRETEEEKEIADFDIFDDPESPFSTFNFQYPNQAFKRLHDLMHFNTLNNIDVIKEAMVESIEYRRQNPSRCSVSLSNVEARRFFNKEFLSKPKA
# Test Name: Inhibition of human cloned cPLA2 expressed in HEK293 cells
Quantity Measured: IC50 (µM)

Worked examples follow.
• O=c1cc(-c2ccc(-c3cccc(-c4cc(=O)c5ccccc5o4)c3)cc2)oc2ccccc12 = 38.7
• O=c1cc(-c2ccc(-c3ccc4oc(-c5ccccc5)cc(=O)c4c3)cc2)oc2ccccc12 = 11.9
• O=c1cc(-c2ccc(-c3ccc(-c4cc(=O)c5ccccc5o4)cc3)cc2)oc2ccccc12 = 6
• O=c1cc(-c2ccc(-c3c(-c4ccccc4)oc4ccccc4c3=O)cc2)oc2ccccc12 = 8.42

1 = O=c1cc(-c2ccccc2)oc2ccc(-c3ccc4oc(-c5ccccc5)cc(=O)c4c3)cc12
2 = O=c1cc(-c2cccc(-c3ccc4oc(-c5ccccc5)cc(=O)c4c3)c2)oc2ccccc12
Lookup: Between 1 and 2 , whose recorded IC50 is greater? Give the label under which the chosen entry appears.
Found: 1
(1: 48.1 µM, 2: 16.8 µM)
